Origin of the recorded values: ChEMBL document CHEMBL4689842

Recorded Population Healthy Nuclei (%), one value per entry.
Test system: U2OS
Experiment: Multiplex assay against U2OS
Assay type: toxicity, cell-based
Conditions: human, 12 h, 1 µM, compound concentration 1 uM, replicate 1

{"Molecule": "O=C(Cc1ccc(-c2ccc(OCCN3CCOCC3)cc2)cn1)NCc1ccccc1 [TIRBANIBULIN]", "Population Healthy Nuclei (%)": "76%"}
{"Molecule": "Cc1ccc(C(=O)Nc2cccc(C(F)(F)F)c2)cc1Nc1nc(-c2cccnc2)nc2c1cnn2C", "Population Healthy Nuclei (%)": "63%"}
{"Molecule": "C=CCn1c(=O)c2cnc(Nc3ccc(N4CCN(C)CC4)cc3)nc2n1-c1cccc(C(C)(C)O)n1 [ADAVOSERTIB]", "Population Healthy Nuclei (%)": "60%"}
{"Molecule": "COc1ccc(-c2ccc3c(N4CCOCC4)nc(N4C[C@@H](C)O[C@@H](C)C4)nc3n2)cc1CO [Ku-0063794]", "Population Healthy Nuclei (%)": "87%"}

----------
Test system: Fibroblast
Experiment: Multiplex assay against human fibroblast
Assay type: toxicity, cell-based
Details: 24 h, 1 µM, compound concentration 1 uM, replicate 2

{"Compound": "Cl.Oc1ccc2c3c1O[C@H]1c4[nH]c5c(c4C[C@@]4(O)[C@@H](C2)N(CC2CC2)CC[C@]314)C[C@@]1(O)[C@H]2Cc3ccc(O)c4c3[C@@]1(CCN2CC1CC1)[C@H]5O4", "Population Mitotic Cells (%)": 75}
{"Compound": "O=C(Cc1ccc(-c2ccc(OCCN3CCOCC3)cc2)cn1)NCc1ccccc1", "Population Mitotic Cells (%)": 38}
{"Compound": "Cc1ccc(C(=O)Nc2cccc(C(F)(F)F)c2)cc1Nc1nc(-c2cccnc2)nc2c1cnn2C", "Population Mitotic Cells (%)": 72}
{"Compound": "O=C1NC(=O)C(c2cnc3ccccn23)=C1c1cn2c3c(cc(F)cc13)CN(C(=O)N1CCCCC1)CC2", "Population Mitotic Cells (%)": 20}
{"Compound": "CCN1CCN(c2ccc(Nc3cc(N(C)C(=O)Nc4c(Cl)c(OC)cc(OC)c4Cl)ncn3)cc2)CC1", "Population Mitotic Cells (%)": 33}
{"Compound": "O=C(Nc1cccnn1)N1CCC(=Cc2cccc(Oc3ccc(C(F)(F)F)cn3)c2)CC1", "Population Mitotic Cells (%)": 40}
{"Compound": "S=C(NCCCc1c[nH]cn1)NCCCN(Cc1ccc(Cl)c(Cl)c1)c1ccc(Br)cn1", "Population Mitotic Cells (%)": 0}
{"Compound": "O=C(Nc1ccc(Cl)cc1)Nc1cccc(-c2cccc(N3CCCC3)n2)c1", "Population Mitotic Cells (%)": 80}
{"Compound": "CN1C2CCC1CC(OC(c1ccc(F)cc1)c1ccc(F)cc1)C2.Cl (configuration not stated)", "Population Mitotic Cells (%)": 80}
{"Compound": "COc1ccc(S(=O)(=O)N(CCO)c2ccccc2CN(C)C/C=C/c2ccc(Cl)cc2)cc1.O=P(O)(O)O", "Population Mitotic Cells (%)": 0}
{"Compound": "CCCS(=O)(=O)Nc1ccc(F)c(C(=O)c2c[nH]c3ncc(Cl)cc23)c1F", "Population Mitotic Cells (%)": 75}
{"Compound": "Cl.O=C(c1ccc(Nc2nccc(-c3cc4ccccc4s3)n2)cc1)N1CCC(N2CCCC2)CC1", "Population Mitotic Cells (%)": 100}
{"Compound": "CCOc1cc2ncc(C#N)c(Nc3ccc(OCc4ccccn4)c(Cl)c3)c2cc1NC(=O)/C=C/CN(C)C", "Population Mitotic Cells (%)": 76}
{"Compound": "CCn1cc(-c2ccnc3[nH]c(-c4cccc(CN(C)C)c4)cc23)c(-c2ccc(NC(=O)N(C)C)cc2)n1", "Population Mitotic Cells (%)": 33}
{"Compound": "CN(C)C(=O)C(CCN1CCC(O)(c2ccc(Cl)cc2)CC1)(c1ccccc1)c1ccccc1.Cl [LOPERAMIDE HYDROCHLORIDE]", "Population Mitotic Cells (%)": 46}
{"Compound": "C=C1/C(=C\\C=C2/CCC[C@]3(C)[C@@H]([C@H](C)/C=C/[C@H](C)C(C)C)CC[C@@H]23)C[C@@H](O)C[C@@H]1O", "Population Mitotic Cells (%)": 57}
{"Compound": "O=C1N/C(=N/c2ccccc2F)S/C1=C\\c1ccc(C(=O)O)cc1", "Population Mitotic Cells (%)": 100}

----------
Tested on: Fibroblast
Test: Multiplex assay against human fibroblast
Format: toxicity, cell-based
Conditions: 48 h, 10 µM, compound concentration 10 uM, replicate 2
Endpoint Label: Total Cell Count

{"Compound": "CCc1cccc(CC)c1NC(=O)c1nn(C)c2c1CCc1cnc(Nc3ccc(C(=O)NC4CCN(C)CC4)cc3OC(F)(F)F)nc1-2", "Observed Measurement": 158}
{"Compound": "CCn1c(=O)c(-c2ccc(-c3cncs3)cc2Cl)cc2cnc(Nc3ccc(N4CCN(C)CC4)cc3)nc21", "Observed Measurement": 139}
{"Compound": "CCOc1cc2ncc(C#N)c(Nc3ccc(OCc4ccccn4)c(Cl)c3)c2cc1NC(=O)/C=C/CN(C)C [NERATINIB]", "Observed Measurement": 814}
{"Compound": "COc1cc(N2CCN(C)CC2)ccc1Nc1ncc2c(n1)N(C)c1ccccc1C(=O)N2C", "Observed Measurement": 188}
{"Compound": "O=C(Cc1ccc(-c2ccc(OCCN3CCOCC3)cc2)cn1)NCc1ccccc1 [TIRBANIBULIN]", "Observed Measurement": 164}
{"Compound": "O=C1NC(=O)C(c2cnc3ccccn23)=C1c1cn2c3c(cc(F)cc13)CN(C(=O)N1CCCCC1)CC2 [LY-2090314]", "Observed Measurement": 66}
{"Compound": "Cc1cc(C)c(S(=O)(=O)N(Cc2ccc(-c3cccc(S(C)(=O)=O)c3)cc2)Cc2ccc(C(F)(F)F)o2)c(C)c1", "Observed Measurement": 86}
{"Compound": "S=C(NCCCc1c[nH]cn1)NCCCN(Cc1ccc(Cl)c(Cl)c1)c1ccc(Br)cn1", "Observed Measurement": 81}
{"Compound": "O=C(Nc1ccc(-n2nc(-c3cccnc3)cc2C(F)(F)F)cn1)c1ccc(-c2ccccc2)c(F)c1 [BI 2049]", "Observed Measurement": 140}
{"Compound": "CCN1CCN(Cc2ccc(Nc3ncc(F)c(-c4cc(F)c5nc(C)n(C(C)C)c5c4)n3)nc2)CC1.CS(=O)(=O)O", "Observed Measurement": 145}
{"Compound": "COCC(=O)NC/C=C/c1ccc2ncnc(Nc3ccc(Oc4ccc(C)nc4)c(C)c3)c2c1 [CP-724714]", "Observed Measurement": 163}
{"Compound": "CNc1cc(Oc2cc(C(=O)Nc3cc(N4CCN(C)CC4)cc(C(F)(F)F)c3)ccc2C)ncn1", "Observed Measurement": 67}
{"Compound": "O=C1N/C(=N/c2ccccc2F)S/C1=C\\c1ccc(C(=O)O)cc1", "Observed Measurement": 90}
{"Compound": "Cl.O=C(c1ccc(Nc2nccc(-c3cc4ccccc4s3)n2)cc1)N1CCC(N2CCCC2)CC1", "Observed Measurement": 93}
{"Compound": "CCOc1cc(C(=O)N2CCC(N3CCN(C)CC3)CC2)ccc1Nc1ncc2c(n1)N(C1CCCC1)c1ccccc1C(=O)N2C", "Observed Measurement": 120}
{"Compound": "Cc1cn(-c2cc(NC(=O)c3ccc(C)c(Nc4nccc(-c5cccnc5)n4)c3)cc(C(F)(F)F)c2)cn1 [NILOTINIB]", "Observed Measurement": 66}

----------
System: Fibroblast
Experiment: Multiplex assay against human fibroblast
Type: toxicity, cell-based
Settings: 48 h, 10 µM, compound concentration 10 uM, replicate 1
Reported Population Mitochondria Different-Phenotype (%) values for a set of molecules
Endpoint Label: Population Mitochondria Different-Phenotype (%)

{"Molecule": "CCOc1cc(C(=O)N2CCC(N3CCN(C)CC3)CC2)ccc1Nc1ncc2c(n1)N(C1CCCC1)c1ccccc1C(=O)N2C", "Observed Measurement": 41}
{"Molecule": "CNc1cc(Oc2cc(C(=O)Nc3cc(N4CCN(C)CC4)cc(C(F)(F)F)c3)ccc2C)ncn1", "Observed Measurement": 54}
{"Molecule": "CN1CCN(C(=O)C(C)(C)c2ccc(C(=O)Nc3cn4cc(-c5ccncc5)ccc4n3)cc2)CC1 [T3-CLK]", "Observed Measurement": 20}
{"Molecule": "CCOC(=O)c1c(C)[nH]c2ccc3c(c12)CN1CCc2cc(OC)ccc2C1O3 (configuration not stated)", "Observed Measurement": 82}
{"Molecule": "O=C1NC(=O)C(c2cnc3ccccn23)=C1c1cn2c3c(cc(F)cc13)CN(C(=O)N1CCCCC1)CC2 [LY-2090314]", "Observed Measurement": 57}
{"Molecule": "CCOc1cc2ncc(C#N)c(Nc3ccc(OCc4ccccn4)c(Cl)c3)c2cc1NC(=O)/C=C/CN(C)C [NERATINIB]", "Observed Measurement": 4}
{"Molecule": "C=C1/C(=C\\C=C2/CCC[C@]3(C)[C@@H]([C@H](C)/C=C/[C@H](C)C(C)C)CC[C@@H]23)C[C@@H](O)C[C@@H]1O [DOXERCALCIFEROL]", "Observed Measurement": 0}
